Source listed as patent US20190202912A1.

// values below are reported koff
# assayed system: T1, S15-extra cellular domain (ECD) monomer (human, UniProt Q6ZMC9 20-263)
# T1 construct: also called S15 monomer protein
# T1 sequence: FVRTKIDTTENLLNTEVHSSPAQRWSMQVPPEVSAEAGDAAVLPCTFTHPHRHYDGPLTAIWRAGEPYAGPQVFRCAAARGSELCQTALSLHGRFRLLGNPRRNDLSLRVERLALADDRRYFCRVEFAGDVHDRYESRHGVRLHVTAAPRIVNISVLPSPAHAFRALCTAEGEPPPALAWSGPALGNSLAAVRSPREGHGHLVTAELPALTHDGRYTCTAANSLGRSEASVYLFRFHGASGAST
# assay method text: BLI (Octet RED96), mAb on anti-human Fc sensors, S15-ECD monomer in solution, global fit
In your response, the unit should come after the numeric value.

92A (antibody, V domains shown, Mouse anti-human Siglec-15 mAb; also called NC92) VH: DVQLQESGPGLVKFSQSLSLTCSVTGYSITSGYYWNWIRQFPGNKLEWMGYIRHDGSNNYNPSLKNRISITRDTSKNQFFLKLNSVITEDTATYYCVREIYDGSSGYFDVWGTGTTVTVSS VL: QIVLTQSPAIMSASLGEEITLICSASSSVSYMHWYQQKSGTSPKLLIYRTSNLASGVPSRFSGSGSGTFYSLTISSVEAEDAADYYCHQWSSWTFGGGTQLEIK: 0.00014 s⁻¹
93B (antibody, V domains shown, Mouse anti-human Siglec-15 mAb; also called NC93) VH: QVQLKQSGAELVRPGASVKLSCKASGYTFTDYYINWVKQRPGQGLEWIARIYPGNGNTDYNEKFKDKATLTAEKSSTTAYIQLSSLTSEDSAVYFCCLWYFDVWGTGTTVTVSS VL: DIVMTQSPSSLTVTAGEKVTMSCKSSQSLLNSGNQKNYLTWYQQKPGQPPKLLIYWASTRESGVPDRFTGSGSGTDFTLTISNVQPEDLAVYYCQNDYSFPFTFGSGTELEMK: 0.000162 s⁻¹
5G12 (antibody, V domains shown, Mouse anti-human Siglec-15 mAb) VH: QVQLQQPGAELVKPGASVKMSCKASGYTFTSYWITWVIQRPGQGLEWIGDIYCGSDTMHYNEKFKNKATLTVDTSSSTAYMQLSSLTSEDSAVYYCARWWDYGSSYDYFDYWGQGTTLTVSS VL: DIKMTQSPSSMYASLGERVTITCKASQDINSYLSWFQQKPGKSPKTLIYRANRLVDGVPSRFSGSGSGQDYSLTISSLEYEDMGIYYCLQYDEFPYTFGGGTKLEIKR: 0.000123 s⁻¹
83B (antibody, V domains shown, Mouse anti-human Siglec-15 mAb; also called NC83) VH: EVQLQQSGPELVKPGASVKMSCKASGYTFTDYNMHWVKQSHGKSLEWIGYINPNNGGTSYNQKFKDKATLTVNKSSSTAFMELRSLASEDSAVYYCARSDWEDCWGQGTTLTVSS VL: EIQMTQSPSSMSASLGDRITITCQATQDIVKNLNWYQQKPGKPPSFLIYYATELAEGVPSRFSGSGSGSDYSLTISNLESEDFADYYCLQFYEFPYTFGGGTKLEIK: 0.000415 s⁻¹
8C8 (antibody, V domains shown, Mouse anti-human Siglec-15 mAb) VH: QVQLKQSGAELVKPGASVKISCKASGYTFTDYYVNWVKQRPGQGLEWIGKIGPESVSIYYSEKFKAKATLTADKSSSTAYMQLSSLTSEDSAVYFCASYYYGFAYWGQGTLVTVSA VL: DIVMTQAAPSVPVTPGESVSISCRSSKSLLHSNGNTYLYWFLQRPGQSPQLLIYRMSNLASGVPDRFGGSGSGTAFTLRISRVEAEDVGVYYCMQHLEYPYTFGGGTKLEIK: 0.00023 s⁻¹

GET /value?item= 1B2 (antibody, V domains shown, Mouse anti-human Siglec-15 mAb) VH: EVQLVESGGGFVKPGGSLKLSCAASGFTFSDYGMHWVRQAPEKGLEWVAYISSGSSIIYYADTVKGRFTISRDNAKNTLFLQMTSLRSEDTAMYYCARDHYHGNGSDYWGQGTTLTVSS VL: DVLMTQTPLSLPVSLGDQASISCRSSQSIVHSNGNTYLEWYLQKPGQSPKLLIYKVSNRFSGVPDRFSGSGSGTDFTLKISRVEAEDLGVYYCFQGSHVPWTFGGGTKLEIK &field=koff returns 0.000609 s⁻¹

GET /value?item= 3H10 (antibody, V domains shown, Mouse anti-human Siglec-15 mAb) VH: EVQLQQSGAELVRPGASVKLSCTASGFNIKDYYMHWVKERPEQGLEWIGRIDPEDGDIEYDPKFQGKATMTADTSSNTAYLQFSSLTSEDTAVYYCVTDYDYDGGWFAYWGQGTLVTVSA VL: QIILTQSPAIMSASPGEKVTMTCSASSSTSFMHWYQQKPGTSPKRWIFDTSKLASGVPGRFIGSGSGTSYSLTISTMEAEDAATYYCHQRSAYPWTFGGGTKLEIK &field=koff returns 0.000178 s⁻¹

GET /value?item= 80A (antibody, V domains shown, Mouse anti-human Siglec-15 mAb; also called NC80) VH: QVQLKQSGAELVRPGASVKLSCRASGYTFTDFYINWVKQRPGQGLEWIARIYPGSDETYYNEKFKDKVTLTAEKSSSTAYMQLSSLTSEDSAVYFCALWFFDVWGTGTTVTVSS VL: DIVMTQSPSSLTVTAGEKVTMSCKSNQSLLNSGDQKNYLTWYQQKPGQPPKLLIYWASTRESGVPDRFTGSGSGTDFTLTISSVQAEDLAIYYCQNDYSYPLTFGAGTKLELK &field=koff returns 0.000175 s⁻¹
